Data provenance is the nanobody polyreactivity screen of Harvey et al. (2022).

Test: yeast display, Sf9 membrane polyspecificity reagent, FACS + sequencing; frameworks hold sequencing errors
recorded endpoint: polyreactivity (PSR sort gate)

Consider the reported polyreactivity (PSR sort gate) for these sequences:
query sequence	recorded endpoint	assay value
QVQLVESGGGLVQAGGSLRLSCAASGFTFSSYAMGGYRQAPGKERELVAAISSNGRTYYADSVKGRFTISRDNAKNTVYLQMNSQKREDTAVYYCARNIPVSYYRYGYWGQGTQVTVSS	polyreactivity (PSR sort gate)	high polyreactivity
QVQLVESGGGLVQGGGTLRLSCAASGSILSRNTMGWYRQAPGKEREFVADISKGDSTYYADSVKGRFTISRDNAKNTGYLQMNILKPVDTAVYYCAVDSWRRAMWYYGRYGYWGQGTEVTVSS	polyreactivity (PSR sort gate)	low polyreactivity
QVQLVESGGGLVQAGGSLRLSCAASGSNFAKYAMGWYRQAPGKERELVAAISWRGGSTYYADSVKGRFTISRDNAKNTVYLQMNSLKPEDTAVYYCNKVGTWQGPYDYWGQGTQVTVSS	polyreactivity (PSR sort gate)	high polyreactivity
QVQLVESGGGVVQAGGSLRLSCAAYRSIFLFKAMGWYRQATGKERELVAAINRDDSTYYADSVKGRFTISRDNAKNTVYLQMNSLKPEDTAVYYCAAPVLHASYGYGYWGQGTQVTVSS	polyreactivity (PSR sort gate)	low polyreactivity

Sure, the documented polyreactivity (PSR sort gate) for EVQLVETGGGLVQAGGSLRLSCAPSGFNFGVYAMGCYRQEPGKERELFAAISTTVGSTYYADSVKWRFTISRDNEKNTVYLQMTSLKPEDTAVYYCATGWSNCGQGTQVTVSS is low polyreactivity

* * *

Test: yeast display, Sf9 membrane polyspecificity reagent, FACS + sequencing; frameworks hold sequencing errors
recorded endpoint: polyreactivity (PSR sort gate)

query sequence	assay value
QVQLVESGGGLVQAGGSLRLSCAASGGTCGTNAMGWYRQAPGKEREFVAAISRSGGSTNYADSVKGRFTISRDKAKNTVYLQMNSLKPEDTAVYYCATRVIVVPLGGGYYSWGQGTQVTVSS	high polyreactivity
QVQLVESGGGLVQAGGSLRLSCAASGSISYFNAMGWYIQAPGKERELVAAISRGATTYADSVKGRFTISRDNAKNTVYLQMNSLKPEDTAVYYCNAGLRGNIRKSYRYDSWGQGTQVTVSS	high polyreactivity
QVQLVESGGGLVQAGGSLRLSCAASGRTFGLNAMGWYRQAPGKEMELVAAITSGGSTYYADSVKGRFTISRDNAKNTVYLQMNSLKPEDTAVYYCAVTYNGDSSWPGDYWGQGTQVTVSS	low polyreactivity
QVQLVESGGGLVQAGGSLRLICAASGSIFVYNAMGWYRQAPGKERELVAAISYSGGRTYYADSVKGRFTISRDNAKNTVYLQMNSLKPEDTAVYYCAARSQRHKLSREYNYWGQGTQVTVSS	high polyreactivity
QVQVVESGGGLVQAGGSLRLSCAASGSTFPVYAMGWYRQAPGKERELVAAISRSGASTYADSVKGRFTISRDNAKNTVYLQMNSLKPEDTAVYYCNKDPGNVSSYTGGGYWGQGTQVTVSS	low polyreactivity

Sure, the documented polyreactivity (PSR sort gate) for QVQLVESGGCLVQAGGSLRLSSAASGFIFYYNAMGWYRQEPGKESELVATIRGSGGSTYYADSVKGRFTISRDNAKNTVYLQMNSLKPEDTAVYYCAASVQYRRLKKFYYWGQGTQVTVSS is high polyreactivity

Sure, the documented polyreactivity (PSR sort gate) for QVQLVESGGGLVQAGGSLRLSCAASGFTKFYNAMGWYRQAPGKERELVAAITARGGGTYYADSVKGRFTFSRDNAKNTVYLLMNSLKPEDTAVYYCAKQPIIYWQSSRFDYWGQGTQVTVSS is low polyreactivity

Sure, the documented polyreactivity (PSR sort gate) for QVQLVESGGGLVQAGGSLRLSCAASGSTFGHYVMGWYRQAPGKERELVAVISSSGGRTYYADSVKGRFTISRDNAKNTVYLQMNSLKPEDTAVYYCAAGSISTPGRGVDKPDPYDYWGQGTQVTVSS is low polyreactivity

Sure, the documented polyreactivity (PSR sort gate) for QVQLVESGGGLVQAGGSLRLSCAASVYAMGWYRQAPGKERELVAAITDSGSTNYADSVKGRFTISRDNAKNTVYLQMNSLKPEDNAVYYCNADPYYATGSWARLPLYQYDYWGQGTQVTVSS is low polyreactivity

Sure, the documented polyreactivity (PSR sort gate) for QVQLVESGGGLVQAGGSLRLSCAPSGRILRGYAMGWYRQAPGKDRELVAAISRRGGSTRYADSVKGRFTISRDNAKNTVYLQMNSLKPEDTAVYYCAPRYHPWCYDYWGQGTQVTVSS is high polyreactivity

Sure, the documented polyreactivity (PSR sort gate) for QVQLVESGGGLVQAGGSLRLSCAASGSIFQHNAMGWYRQAPGKERELVATISESGGSTYYADSVKGRFTISRDNAKNTVYLQMNSLKPEDTAVYYCNTDYDYGWWDLGEFDYWGQGTQVTVSS is low polyreactivity

Sure, the documented polyreactivity (PSR sort gate) for QVQLVESGGGLVQAGGSLRLSCAASGRTLRRYAMGGYRQAPGKERELVAAISSGVSTNYADSVKGRFTISRDNAKNTVYLQMNSLKPEDTAVYYCNKKRPVYALSIVPYYSWGQGTQVTVSS is high polyreactivity

* * *

Experiment: yeast display, Sf9 membrane polyspecificity reagent, FACS + sequencing; frameworks hold sequencing errors
recorded endpoint: polyreactivity (PSR sort gate)

query sequence	polyreactivity (PSR sort gate)
QVQLVESGGGLVQAGGSLRLSCAASGSIFGYYAMGWSRQAPGKERELVAAISASGGSTYYADSVKGRFTISRDNAKNTVYLQMNSLKPEDTAVYYCAKVDWEQGFWVEYDHYDYWGQGTQVTVSS	high polyreactivity
QVQLVESGGGLVQAGGSLRLSCAASGSIFGVYAMGWYRQAPGKERELVAAIDSGGDTYYADSVKGRFTISRDNAKNTVYLQMNSLKPEDTAVYYCNAPYNRATYNYWGQGTQVTVSS	high polyreactivity
QVQLVESGGGLVQAGGSLRLSCAASGRIFSRYVRGWYRQAPGKEREFVASITWSGSSTYYADSVKGRFTISRDNAKNTVYLQMNSLKPEDTAVYYCAALGLLSPSPWGTHISEYDSWGQGTQVTVSS	low polyreactivity
QVQLVESGGGLVQAGGSLRLSCAASGSSKLMLWDGIDRRLGKKGSWLPLFVLVVLRNYADSVKGRFTISRDNAKNTVFLHMNSLKPEDTAVYYCAATPIGSGGWGDYWGQGTQVTVSS	low polyreactivity
QVQLVESGGGLVQAGGSLRLICAASGFIFWRYAMGWYRQAPGKERELVAAISRTSTSTYYADSVKGRFTISRDNAKNSVYLQMNSLKPEDTAVYYCAATFSTFYGYGYWGQGSQVTVSS	high polyreactivity

Sure, the documented polyreactivity (PSR sort gate) for QVHLVESGGGLVNAGGSLRLSCAASGRIFSGYAMGWYRQAPGKERELVAAITSVGSTNNADSVKGRFTISRDNAKNTVYLQMNSLKPEDTAVYYCAARGSYARGYDYWGQGTQVTVSS is high polyreactivity

Sure, the documented polyreactivity (PSR sort gate) for QVQLVESGVGLVQAGGSLRLSCAASGNIITTYAMGWYRQAPGKERELVAAISRTGGRTSYADSVKGRFTISRDNAKNTVYLQMNSLKPEDTAVYYCAAVQTVRQSAPRARILSDYWGQGTQVTVSS is high polyreactivity

Sure, the documented polyreactivity (PSR sort gate) for QVQLVESGGGLVQAGGSLRLSCAASGFIFVIYGMGWYRQAPGKERELVAAISRGGSTYADSVKGRFTISRDNAKNTVYLQMNSLKPEDTAVYYCNARLYKRGGFGYYYWGQGTQVTVSS is high polyreactivity

Sure, the documented polyreactivity (PSR sort gate) for QVQLQESRGGLVQAGGSLRLSCAASGTISDRAGMGWYRQAPAKNAIVATIDRGTNTNYADSVKGRFTISRDNAKNTVYLQMNSLKPEDTAVYNCAADGRYYIYLDYWGQGTQVTVSS is low polyreactivity

Sure, the documented polyreactivity (PSR sort gate) for QVQLGESGGGLVQAGGSLRLSCAASGIIFRRYAMGWYRQAPGKERELVAVISSGGSTNYADSVKGRFTISRDNAKNTVYLQMNSLKPEDTAVYYCAAPSQSRGYYYWGQGTQVTVSS is high polyreactivity

Sure, the documented polyreactivity (PSR sort gate) for QVQLVESGGGLVQAGGSLRLTCAASGSTFRENAMGWNRQAPGKERELVAAITSGGSTYYADSVKGRFTISRDNAKNTVYLQMNSLKPEDTAVYYGNADLEPYDYWGQGTQVTVSS is low polyreactivity

* * *

Experiment: yeast display, Sf9 membrane polyspecificity reagent, FACS + sequencing; frameworks hold sequencing errors

query sequence	polyreactivity (PSR sort gate)
QVQLVESAGGLVQAGGSLRLSCAASGFTFDYYAMGWYRQAPGKERELVASITFIGGNTNYADSVKGRFTISRDNAKTTVYLQMNSLKPEDTAVYYCAADFPWDYRYWFEYWGQGTQVTVSS	low polyreactivity
QVQLVESGGGLVQAGGSLRLSCAASGSIIFLYAMGWYRQAPGKERELVASISTSGTTITYYADSVKGRFTISRDNAKNTVYLQMNSLKPEDTAVYYCAADTLYYPYDYWGQGTQVTVSS	low polyreactivity
